- Target system: AHR (Homo sapiens)
- Construct: HepG2 cells transiently transfected with the pGudLuc6.1 plasmid were thawed and 25,000 cells were plated per well; endogenous in cells; host or cells: HepG2
- Sequence (P35869 11-848): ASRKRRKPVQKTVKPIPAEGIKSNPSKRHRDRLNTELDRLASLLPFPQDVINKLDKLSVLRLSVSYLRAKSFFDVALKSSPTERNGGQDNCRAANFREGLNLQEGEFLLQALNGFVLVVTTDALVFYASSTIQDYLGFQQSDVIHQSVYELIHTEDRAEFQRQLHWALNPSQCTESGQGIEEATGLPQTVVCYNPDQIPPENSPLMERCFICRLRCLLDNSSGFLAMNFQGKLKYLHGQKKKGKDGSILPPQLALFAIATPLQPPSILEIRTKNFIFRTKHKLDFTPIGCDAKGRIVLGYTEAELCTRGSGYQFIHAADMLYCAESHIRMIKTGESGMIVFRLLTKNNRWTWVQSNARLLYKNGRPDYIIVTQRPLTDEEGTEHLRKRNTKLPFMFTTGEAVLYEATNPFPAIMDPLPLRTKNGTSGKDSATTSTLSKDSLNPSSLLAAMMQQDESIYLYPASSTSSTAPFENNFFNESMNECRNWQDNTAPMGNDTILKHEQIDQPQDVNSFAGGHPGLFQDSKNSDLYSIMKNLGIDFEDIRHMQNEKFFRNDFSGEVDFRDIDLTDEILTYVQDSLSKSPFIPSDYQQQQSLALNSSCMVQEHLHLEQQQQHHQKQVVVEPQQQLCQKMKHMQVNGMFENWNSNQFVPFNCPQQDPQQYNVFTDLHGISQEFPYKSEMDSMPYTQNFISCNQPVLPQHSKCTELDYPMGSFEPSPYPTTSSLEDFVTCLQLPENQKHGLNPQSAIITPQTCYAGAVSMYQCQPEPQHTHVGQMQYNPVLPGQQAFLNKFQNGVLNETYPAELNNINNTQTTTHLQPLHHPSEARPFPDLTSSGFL
- Experiment notes: AHR antagonist assay, HepG2 cells transiently transfected with pGudLuc6.1 luciferase plasmid, Example 9
- Type: cell-based
- Test parameters: without VAF347; luciferase activity 24 hours post-culture; read-out: Endogenous AHR Antagonist Activity EC50
Measure name: EC50 (nM)

[
  {
    "Compound": "CCOCCC(C)c1cnc2c(NCCc3c[nH]c4ccccc34)nc(-c3cncc(F)c3)cn12 (stereo not drawn)",
    "EC50, nM": 2
  },
  {
    "Compound": "COCCCC(C)c1cnc2c(NCCc3c[nH]c4ccccc34)nc(-c3cncc(F)c3)cn12 (stereo not drawn)",
    "EC50, nM": 2
  },
  {
    "Compound": "CC(C)n1cnc2c(NCCc3ccc(O)cc3)nc(-c3csc4ccccc34)nc21 [SR1, reference compound]",
    "EC50, nM": 33
  },
  {
    "Compound": "COCCC(C)c1cnc2c(NCCc3c[nH]c4ccccc34)nc(-c3cncc(F)c3)cn12 (racemic) [Compound (24)]",
    "EC50, nM": 1
  }
]

A. COCCC(C)c1cnc2c(NCCc3c[nH]c4ccccc34)nc(-c3cncc(F)c3)cn12 (single isomer, unassigned) [Compound (24) - Enantiomer Peak 1]
B. COCCC(C)c1cnc2c(NCCc3c[nH]c4ccccc34)nc(-c3cncc(F)c3)cn12 (single isomer, unassigned) [Compound (24) - Enantiomer Peak 2]
Please compare: A and B . Report which one has the smaller EC50 value. // return label of chosen record B
